Attribution: patent US20250034173A1

- STUDY_TARGET: KRAS G12V (Homo sapiens (Human), UniProt P01116, G12V)
- Sequence (P01116 other isoform, or with tags, fused parts or gaps G12V): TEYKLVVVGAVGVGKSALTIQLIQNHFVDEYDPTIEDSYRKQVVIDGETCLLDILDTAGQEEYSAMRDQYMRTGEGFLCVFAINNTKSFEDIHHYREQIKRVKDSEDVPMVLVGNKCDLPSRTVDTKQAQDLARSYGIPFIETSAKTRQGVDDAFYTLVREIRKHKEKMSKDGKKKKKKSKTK
- PROTOCOL_NOTES: SPR binding affinity and kinetics, GTPγS-loaded KRAS G12V
- CONDITIONS: GTPγS loaded protein, geomean
- Description: No additional regeneration was used. Compound dissociation was monitored for at least 3600 seconds. […] No additional regeneration was used. The adequateness of the fit was judged by c2 values and the randomness of residue distribution.
Each entry below carries its reported pKd.
Convention used: pKd is expressed as -log10 of the molar concentration.

Reference set, count: 5
MOLECULE	STUDY_TARGET	pKd
C=C1CN2CC[C@@H](O)[C@@]2(COc2nc3c4c(nc(-c5c(C6CC6)c(Cl)cc6[nH]ncc56)c(F)c4n2)OC[C@@H]2COCCCN32)C1 (relative stereo) [Example 45]	KRAS G12V (Homo sapiens (Human), UniProt P01116, G12V)	8.70
C=C1CN2CCC[C@@]2(COc2nc3c4c(nc(-c5c(C)c(Cl)cc6[nH]ncc56)c(F)c4n2)OC[C@@H]2COCCCN32)C1 [Example 7]	KRAS G12V (Homo sapiens (Human), UniProt P01116, G12V)	7.62
C[C@@H]1CCCc2cc3[nH]ncc3c(-c3nc4c5c(nc(OC[C@@]67CCCN6CC(=C6COC6)C7)nc5c3F)N3CCCOC[C@H]3CO4)c21 [Example 47]	KRAS G12V (Homo sapiens (Human), UniProt P01116, G12V)	8.40
C=C1CN2CCC[C@@]2(COc2nc3c4c(nc(-c5c(C6CC6)ccc6[nH]ncc56)c(F)c4n2)OC[C@@H]2COCCCN32)C1 [Example 20]	KRAS G12V (Homo sapiens (Human), UniProt P01116, G12V)	7.30
C=C1CN2CCC[C@@]2(COc2nc3c4c(nc(-c5c(C(C)C)c(Cl)cc6[nH]ncc56)c(F)c4n2)OC[C@@H]2COCCCN32)C1 [Example 24]	KRAS G12V (Homo sapiens (Human), UniProt P01116, G12V)	8.30

Request: Find the measured pKd: item F/C=C1/CN2CCC[C@@]2(COc2nc3c4c(nc(-c5c(C6CC6)c(Cl)cc6[nH]ncc56)c(F)c4n2)OC[C@@H]2COCCCN32)C1 [Example 15] , target or system KRAS G12V (Homo sapiens (Human), UniProt P01116, G12V).
Result: 8.40

Request: Now try C/C=C1\CN2CCC[C@@]2(COc2nc3c4c(nc(-c5c6c(cc7[nH]ncc57)CCC[C@H]6C)c(F)c4n2)OC[C@@H]2COCCCN32)C1 [Example 53] .
Result: 8.70

Request: Now try Fc1c(-c2c(C3CC3)c(Cl)cc3[nH]ncc23)nc2c3c(nc(OC[C@@]45C[C@@H](F)CN4CC4(CC4)C5)nc13)N1CCCOC[C@H]1CO2 [Example 35] .
Result: 7.92

---

Each entry below carries its reported Kd.
- STUDY_TARGET: KRAS G12V (Homo sapiens (Human), UniProt P01116, G12V)
- PROTOCOL_NOTES: SPR binding affinity and kinetics, GTPγS-loaded KRAS G12V
- CONDITIONS: GTPγS loaded protein, geomean
Numbers only; they are read as nM.

COMPOUND	STUDY_TARGET	QUANTITY_UNIT	Kd
C=C1CN2CCC[C@@]2(COc2nc3c4c(nc(-c5c([C@@H]6C[C@@H]6C)c(Cl)cc6[nH]ncc56)c(F)c4n2)OC[C@@H]2COCCCN32)C1 (single isomer, unassigned) [Example 30]	KRAS G12V (Homo sapiens (Human), UniProt P01116, G12V)	nM	4
C=C1CN2CCC[C@@]2(COc2nc3c4c(nc(-c5c(C(F)(F)F)ccc6[nH]ncc56)c(F)c4n2)OC[C@@H]2COCCCN32)C1 [Example 12]	KRAS G12V (Homo sapiens (Human), UniProt P01116, G12V)	nM	62
C=C1CN2CCC[C@@]2(COc2nc3c4c(nc(-c5c6c(cc7[nH]ncc57)CCC[C@H]6C)c(F)c4n2)OC[C@@H]2COCCCN32)C1 [Example 29]	KRAS G12V (Homo sapiens (Human), UniProt P01116, G12V)	nM	2

Request: Fill blank: measured Kd of the compound Fc1c(-c2c(Cl)c(Cl)cc3[nH]ncc23)nc2c3c(nc(OC[C@@]45CCCN4C[C@H](F)C5)nc13)N1CCCC[C@H]1CO2 [Example 4] is ____.
Result: 1590

Request: Now try CN(C)C(=O)/C=C1\CN2CCC[C@@]2(COc2nc3c4c(nc(-c5c(C6CC6)c(Cl)cc6[nH]ncc56)c(F)c4n2)OC[C@@H]2COCCCN32)C1 [Example 43] .
Result: 677
